# System: −333_CaBP22::GUS
# Assay Summary: GUS activity after spray-treatment of soil grown seedlings (structure-activity analysis, FIG. 5B, FIG. 8B)
# Type: in vivo, Arabidopsis
# Test Parameters: 48 hours after spray-treatment, structure-activity analysis
Reported Endpoint: efficiency in inducing −333_CaBP22::GUS expression (defense inducing activity)

{"Compound": "O=C(O)c1cc(Cl)nc(Cl)c1 [INA, 2,6-dichloroisonicotinic acid, reference compound]", "Assayed System": "−333_CaBP22::GUS", "Experimental Value": "nearly identical"}
{"Compound": "Nc1c(Cl)cc(Cl)cc1C(=O)O", "Assayed System": "−333_CaBP22::GUS", "Experimental Value": "nearly identical"}
